Attribute: Dmax
Target: BCL-XL (Homo sapiens, UniProt Q07817)
Construct: endogenous in cells; host or cells: MOLT-4
Sequence (Q07817 whole entry): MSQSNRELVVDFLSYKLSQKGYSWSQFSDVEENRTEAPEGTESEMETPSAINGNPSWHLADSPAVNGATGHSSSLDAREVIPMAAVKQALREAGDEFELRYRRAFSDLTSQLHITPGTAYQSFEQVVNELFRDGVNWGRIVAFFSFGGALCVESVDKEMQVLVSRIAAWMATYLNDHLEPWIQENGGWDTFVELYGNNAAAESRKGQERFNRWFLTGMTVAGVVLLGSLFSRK
Assay: Bcl-xL ELISA degradation in MOLT-4 cells, 6 h
Format: cell-based

Look over these answered cases.
COMPOUND	Dmax
C#Cc1ccc([C@H](C)NC(=O)[C@@H]2C[C@@H](O)CN2C(=O)[C@@H](NC(=O)CCCCS(=O)(=O)NC(=O)c2nc(N(C)c3cc(C)c(Nc4nc5ccccc5s4)nn3)ccc2-c2cnn(CC34CC5CC(CC(C5)C3)C4)c2C)C(C)(C)C)cc1 [I-368]	> 75%
C#Cc1ccc(CNC(=O)[C@@H]2C[C@@H](O)CN2C(=O)[C@@H](NC(=O)CCCCCS(=O)(=O)NC(=O)c2nc(N3CCc4cccc(C(=O)Nc5nc6ccccc6s5)c4C3)ccc2-c2cnn(CC3CCCC3)c2C)C(C)(C)C)cc1 [I-444]	> 75%
Cc1ncsc1-c1ccc(CNC(=O)[C@@H]2C[C@@H](O)CN2C(=O)[C@@H](NC(=O)C2CN(c3ccc(S(=O)(=O)NC(=O)c4nc(N5CCc6cccc(C(=O)Nc7nc8ccccc8s7)c6C5)ccc4-c4cnn(CC5CCCCC5)c4C)cc3F)C2)C(C)(C)C)cc1 [I-330]	50 to 75%
Cc1ncsc1-c1ccc([C@H](C)NC(=O)[C@@H]2C[C@@H](O)CN2C(=O)[C@@H](NC(=O)C2CN(c3ccc(S(=O)(=O)NC(=O)c4nc(N5CCc6cccc(C(=O)Nc7nc8ccccc8s7)c6C5)ccc4-c4cnn(CC5CCCCC5)c4C)cc3)C2)C(C)(C)C)cc1 [I-343]	> 75%
Cc1ncsc1-c1ccc([C@H](C)NC(=O)[C@@H]2C[C@@H](O)CN2C(=O)[C@@H](NC(=O)CN2CCC(CS(=O)(=O)NC(=O)c3nc(N4CCc5cccc(C(=O)Nc6nc7ccccc7s6)c5C4)ccc3-c3cnn(CC4CCCCC4)c3C)CC2)C(C)(C)C)cc1 [I-335]	> 75%
Cc1cc(N(C)c2ccc(-c3cnn(CC45CC6CC(CC(C6)C4)C5)c3C)c(C(=O)NS(=O)(=O)CCCCC(=O)N[C@H](C(=O)N3C[C@H](O)C[C@H]3C(=O)NCc3ccc(-c4scnc4C)cc3)C(C)(C)C)n2)nnc1Nc1nc2ccccc2s1 [I-371]	> 75%
CCC(CC)Cn1ncc(-c2ccc(N3CCc4cccc(C(=O)Nc5nc6ccccc6s5)c4C3)nc2C(=O)NS(=O)(=O)c2ccc(N3CCC(C(=O)N[C@H](C(=O)N4C[C@H](O)C[C@H]4C(=O)N[C@@H](C)c4ccc(-c5scnc5C)cc4)C(C)(C)C)CC3)cc2)c1C [I-349]	> 75%

Note: attention shifts to another entry.
input: Look up and report measured Dmax for this entry: Cc1ncsc1-c1ccc([C@H](C)NC(=O)[C@@H]2C[C@@H](O)CN2C(=O)[C@@H](c2cc(OC3CCN(CCNC(=O)c4nc(N5CCc6cccc(C(=O)Nc7nc8ccccc8s7)c6C5)ccc4-c4cnn(CC5CCCCC5)c4C)CC3)no2)C(C)C)cc1 [I-291]
output: < 50%

====

Attribute: Dmax
Target: BCL-XL (Homo sapiens)
Construct: endogenous in cells; host or cells: MOLT-4
Assay: BCL-XL degradation assay, western blot in MOLT-4 cells, 16 h
Assay type: cell-based
Settings: western blot, MOLT-4 cells, 16 h; read-out: Bcl-xL WB in MOLT-4 degradation 16 h: Average Dmax %

Look over these answered cases.
COMPOUND	PROPERTY_LABEL	RESULT
Cc1cc(N(C)c2ccc(-c3cnn(CC4CCCCC4)c3C)c(C(=O)NS(=O)(=O)CCCCC(=O)N[C@H](C(=O)N3C[C@H](O)C[C@H]3C(=O)N[C@@H](C)c3ccc(-c4scnc4C)cc3)C(C)(C)C)n2)nnc1Nc1nc2ccccc2s1	Dmax	> 75%
Cc1ncsc1-c1ccc([C@H](C)NC(=O)[C@@H]2C[C@@H](O)CN2C(=O)[C@@H](NC(=O)CO[C@H]2C[C@H](OCCNC(=O)c3nc(N4CCc5cccc(C(=O)Nc6nc7ccccc7s6)c5C4)ccc3-c3cnn(CC4CCCCC4)c3C)C2)C(C)(C)C)cc1	Dmax	> 75%
Cc1ncsc1-c1ccc([C@H](C)NC(=O)[C@@H]2C[C@@H](O)CN2C(=O)[C@@H](NC(=O)CCC2CCC(S(=O)(=O)NC(=O)c3nc(N4CCc5cccc(C(=O)Nc6nc7ccccc7s6)c5C4)ccc3-c3cnn(CC4CCCCC4)c3C)CC2)C(C)(C)C)cc1 (stereo partly drawn)	Dmax	> 75%
Cc1cc([C@@H](C(=O)N2C[C@H](O)C[C@H]2C(=O)NCc2ccc(-c3scnc3C)cc2OCC(=O)N2CCN(CC[C@H](CSc3ccccc3)Nc3ccc(S(=O)(=O)NC(=O)c4ccc(N5CCN(CC6=C(c7ccc(Cl)cc7)CCC(C)(C)C6)CC5)cc4)cc3S(=O)(=O)C(F)(F)F)CC2)C(C)C)on1	Dmax	> 75%
Cc1cc(N(C)c2ccc(-c3cnn(CC4CCCCC4)c3C)c(C(=O)NCCCCCCOc3cc(-c4scnc4C)ccc3CNC(=O)[C@@H]3C[C@@H](O)CN3C(=O)[C@@H](NC(=O)C3(F)CC3)C(C)(C)C)n2)nnc1Nc1nc2ccccc2s1	Dmax	< 50%
Cc1ncsc1-c1ccc([C@H](C)NC(=O)[C@@H]2C[C@@H](O)CN2C(=O)[C@H](NC(=O)CCCCCCCS(=O)(=O)NC(=O)c2nc(N3CCc4cccc(C(=O)Nc5nc6ccccc6s5)c4C3)ccc2-c2cnn(CC(C)C)c2C)C(C)(C)C)cc1	Dmax	> 75%
Cc1ncsc1-c1ccc([C@H](C)NC(=O)[C@@H]2C[C@@H](O)CN2C(=O)[C@@H](NC(=O)CCCCCCCCC(=O)N2CCN(CC#Cc3ccc(OCCCc4sc(N5CCc6cccc(C(=O)Nc7nc8ccccc8s7)c6C5)nc4C(=O)O)c(F)c3)CC2)C(C)(C)C)cc1	Dmax	> 75%
Cc1ncsc1-c1ccc([C@H](C)NC(=O)[C@@H]2C[C@@H](O)CN2C(=O)[C@@H](NC(=O)CCC2(Cn3ncc(-c4ccc(N5CCc6cccc(C(=O)Nc7nc8ccccc8s7)c6C5)nc4C(=O)O)c3C)CCCCC2)C(C)(C)C)cc1	Dmax	< 50%
C#Cc1ccc(CNC(=O)[C@@H]2C[C@@H](O)CN2C(=O)[C@@H](NC(=O)C2(F)CC2)C(C)(C)C)c(OCC(=O)N2CCN(CC[C@H](CSc3ccccc3)Nc3ccc(S(=O)(=O)NC(=O)c4ccc(N5CCN(CC6=C(c7ccc(Cl)cc7)CCC(C)(C)C6)CC5)cc4)cc3S(=O)(=O)C(F)(F)F)CC2)c1	Dmax	> 75%
Cc1ncsc1-c1ccc(CNC(=O)[C@@H]2C[C@@H](O)CN2C(=O)[C@@H](NC(=O)C2(F)CC2)C(C)(C)C)c(OCCC2CN(CC[C@H](CSc3ccccc3)Nc3ccc(S(=O)(=O)NC(=O)c4ccc(N5CCN(CC6=C(c7ccc(Cl)cc7)CCC(C)(C)C6)CC5)cc4)cc3S(=O)(=O)C(F)(F)F)C2)c1	Dmax	50 to 75%

input: Look up and report measured Dmax for this entry: `C#Cc1ccc([C@H](C)NC(=O)[C@@H]2C[C@@H](O)CN2C(=O)[C@@H](NC(=O)CCCCCC(=O)N2CCN(CC[C@H](CSc3ccccc3)Nc3ccc(S(=O)(=O)NC(=O)c4ccc(N5CCN(CC6=C(c7ccc(Cl)cc7)CCC(C)(C)C6)CC5)cc4)cc3S(=O)(=O)C(F)(F)F)CC2)C(C)(C)C)cc1`
output: > 75%

input: Look up and report measured Dmax for this entry: Cc1ncsc1-c1ccc(CNC(=O)[C@@H]2C[C@@H](O)CN2C(=O)C(c2cc(OCCCCCC(=O)N(C)CC#Cc3ccc(OCCCc4sc(N5CCc6cccc(C(=O)Nc7nc8ccccc8s7)c6C5)nc4C(=O)O)c(F)c3)no2)C(C)C)cc1 (stereo partly drawn)
output: > 75%

input: Look up and report measured Dmax for this entry: Cc1ncsc1-c1ccc(CNC(=O)[C@@H]2C[C@@H](O)CN2C(=O)[C@@H](NC(=O)C2(F)CC2)C(C)(C)C)c(O[C@H]2CC[C@@H](N3CCN(CC[C@H](CSc4ccccc4)Nc4ccc(S(=O)(=O)NC(=O)c5ccc(N6CCN(CC7=C(c8ccc(Cl)cc8)CCC(C)(C)C7)CC6)cc5)cc4S(=O)(=O)C(F)(F)F)CC3)CC2)c1 (single isomer, unassigned)
output: < 50%

input: Look up and report measured Dmax for this entry: `Cc1ncsc1-c1ccc([C@H](C)NC(=O)[C@@H]2C[C@@H](O)CN2C(=O)[C@H](NC(=O)CCCCCCCS(=O)(=O)NC(=O)c2nc(N3CCc4cccc(C(=O)Nc5nc6ccccc6s5)c4C3)ccc2-c2cnn(C)c2C)C(C)(C)C)cc1`
output: > 75%

input: Look up and report measured Dmax for this entry: `Cc1ncsc1-c1ccc(CNC(=O)[C@@H]2C[C@@H](O)CN2C(=O)[C@@H](NC(=O)C2(F)CC2)C(C)(C)C)c(OCCCCCS(=O)(=O)NC(=O)c2nc(N3CCc4cccc(C(=O)Nc5nc6cccnc6s5)c4C3)ccc2-c2cnn(CC3CCCCC3)c2C)c1`
output: > 75%
